assay: qHTS assay to identify small molecule antagonists of the estrogen related receptor (ERR) signaling pathway from Tox21 library - cell viability counter screen (AID 1224834); conditions: ERR reporter cells viability, CellTiter-Fluor, 17.5 h; series mostly up to 92.4 µM; note: nearly all actives have a fitted effect of over 30% in size
Results filed as inconclusive are left out. The source made the active and inactive calls. Calls come from the whole dose curve; as a rule, active = well fitted cell-killing curve with a large enough effect in the repeat runs; inconclusive = weak or mixed curves; inactive = flat fitted curve, though single readings scatter.
Pick one and only one: active, inactive

Sample answers from the record:
# Compound, Answer Label
data = [
    ("CCOc1nc(C(Cl)(Cl)Cl)ns1", "inactive"),
    ("CCS(=O)(=O)C(C)(C)S(=O)(=O)CC", "inactive"),
    ("CCC(=O)C(CCN(C)C)(c1ccccc1)c1ccccc1", "inactive"),
    ("O=C(Nc1ccccc1)N(Cc1ccc(Cl)cc1)C1CCCC1", "active"),
]

Record request — test call for CNC(=O)Oc1c(C(C)(C)C)cc(C)cc1C(C)(C)C inactive

Assay result, entry CCNc1nc(NC(C)C)nc(OC)n1 — outcome? inactive

What classification did OCCSCSCCO end up with in this test? inactive

Which outcome was entered for the compound CCOC(=O)C(c1c(O)c2ccccc2oc1=O)c1c(O)c2ccccc2oc1=O in this test? inactive

Tell me the assay call for [Cl][Sn]([Cl])([Cl])[Cl] please. inactive

Field: outcome | Entry: CCC1(c2ccccc2)C(=O)N=C(O)NC1=O (centres undefined) inactive

Call for entry CCC/C(=N\OCC)C1=C(O)CC(CC(C)SCC)CC1=O (centres undefined) : inactive

Assay result, entry N#CC(CCc1ccc(Cl)cc1)(Cn1cncn1)c1ccccc1 (centres undefined) — outcome? active

Check the results log: what was the call for COC(=O)C(C)Oc1ccc(Oc2ccc(Cl)cc2Cl)cc1 (centres undefined) ? inactive

Please indicate how the test categorized CCS(=O)(=O)CCSP(=O)(OC)OC . inactive

Hi, do you know how CN(N=O)C(N)=O came out in this test? inactive

Query: recorded result category for CCC1(c2ccccc2)C(=O)NC(=O)NC1=O in this test inactive

What did this assay record as the result for CNC(=O)Oc1ccccc1C1OCCO1 ? inactive

Please let me know the test result on file for Fc1cc(Br)ccc1CBr . inactive

Record lookup: outcome of this test for CCOP(=S)(OCC)SCSc1ccc(Cl)cc1 ? inactive

Look up the recorded call for O=[N+]([O-])c1cccc(O)c1 in this test. inactive

Test call for this compound, please: C[N+](C)=CCl inactive

Which outcome was assigned to CSc1ccc(C(=O)C(C)(C)N2CCOCC2)cc1 in this test? inactive

Just curious, what result did OC(c1ccc(F)cc1)(c1cncnc1)c1ccccc1Cl (centres undefined) get here? inactive

Call for entry C#CCN1C(=O)COc2cc(F)c(N3C(=O)C4=C(CCCC4)C3=O)cc21 : inactive

Recorded test call requested for CCCCOC(=O)[C@@H](C)Oc1ccc(Oc2ccc(C#N)cc2F)cc1 inactive
